System Name: ABCG2 (Homo sapiens, UniProt Q9UNQ0)
Sequence (Q9UNQ0 1-655): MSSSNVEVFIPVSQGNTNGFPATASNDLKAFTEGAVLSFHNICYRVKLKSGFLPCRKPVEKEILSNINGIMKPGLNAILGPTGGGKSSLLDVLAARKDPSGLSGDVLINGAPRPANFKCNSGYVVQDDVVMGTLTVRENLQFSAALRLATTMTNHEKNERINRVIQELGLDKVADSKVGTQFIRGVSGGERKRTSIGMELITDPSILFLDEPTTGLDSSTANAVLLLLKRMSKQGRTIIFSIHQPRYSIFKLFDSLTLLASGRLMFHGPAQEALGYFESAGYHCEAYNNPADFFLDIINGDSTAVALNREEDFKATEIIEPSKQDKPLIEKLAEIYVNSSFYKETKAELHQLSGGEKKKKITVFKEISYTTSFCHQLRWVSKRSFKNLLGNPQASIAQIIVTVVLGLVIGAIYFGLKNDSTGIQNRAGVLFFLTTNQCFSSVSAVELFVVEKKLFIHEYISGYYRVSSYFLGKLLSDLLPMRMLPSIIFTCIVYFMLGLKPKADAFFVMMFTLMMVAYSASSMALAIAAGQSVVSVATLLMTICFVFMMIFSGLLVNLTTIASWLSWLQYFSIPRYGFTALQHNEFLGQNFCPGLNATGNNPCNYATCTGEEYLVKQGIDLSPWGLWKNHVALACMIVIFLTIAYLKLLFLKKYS
Method Description: Mitoxantrone transport
Setup Conditions: ABCG2-overexpressing MCF7-FLV1000 cells, probe mitoxantrone (5 μM)
Endpoint Name: IC20 (nM)

[
  {
    "Smiles Text": "Cc1cn(-c2cc(NC(=O)c3ccc(C)c(Nc4nccc(-c5cccnc5)n4)c3)cc(C(F)(F)F)c2)cn1",
    "Value Reported": 240
  }
]
